Each entry below carries its reported TGI.
Test system: T-47D breast
Test: NCI tumour cell line growth inhibition, 48 h
Where a SMILES comes first, the peptide text is derived from it. Bridges are numbered along the chain shown (N, C = ends). [ ]: non-standard residue; d: D form. aThr = C[C@H](O)[C@H](N)C(=O)O
quantity_name: TGI

[[record]]
compound = "CC1=NN(c2nc(N)nc(C(C)Cl)n2)C(C)(C)C1 (configuration not stated)"
quantity_name = "TGI"
assay_value = "> 100 µM"

[[record]]
compound = "CCCCCCCCCCCC[C@@H](O)[C@H]1CC[C@H]([C@H](O)CC[C@H](O)[C@@H]2CC[C@@H](CCCCCCCC3=C[C@H](C)OC3=O)O2)O1"
quantity_name = "TGI"
assay_value = "> 50 µM"

[[record]]
compound = "CC(=O)c1ccc(Nc2c3c(nc4ccccc24)CCCC3)cc1"
quantity_name = "TGI"
assay_value = "> 52.2 µM"

[[record]]
compound = "CCOC(=O)c1c2c(n(-c3ccc(C)cc3)c1C)-c1ccccc1C(=O)C2(C(=O)OCC)C(=O)OCC"
quantity_name = "TGI"
assay_value = "64.5 µM"

[[record]]
compound = "Nc1nc(=S)c2ncn(C3OC(COP(=O)(O)O)C(O)C3O)c2[nH]1 (configuration not stated)"
quantity_name = "TGI"
assay_value = "> 100 µM"

[[record]]
compound = "COC(=O)c1c(C)cccc1/C=C1\\Cc2ccc(C)c(C)c2C1=O"
quantity_name = "TGI"
assay_value = "> 100 µM"

[[record]]
compound = "O=c1c(-c2ccccc2)nnc2n(Cc3ccccc3)c3ccccc3n12"
quantity_name = "TGI"
assay_value = "> 100 µM"

[[record]]
compound = "CC(C)C[C@@H]1NC(=O)[C@@H]2CCCN2C(=O)[C@@H]2CCCN2C(=O)[C@H](CC(C)C)NC(=O)[C@H](CO)NC(=O)[C@H](CCCCN)NC(=O)[C@H]([C@H](C)O)NC(=O)[C@@H]2CSSC[C@@H](NC1=O)C(=O)N[C@@H](Cc1ccccc1)C(=O)N1CCC[C@H]1C(=O)N[C@@H](CC(=O)O)C(=O)NCC(=O)N[C@@H](CCCN=C(N)N)C(=O)N2 (cyclo(C[aThr]KSLPPL[dC]FPDGR); disulfide 1-9)"
quantity_name = "TGI"
assay_value = "> 50 µM"

[[record]]
compound = "Cc1cccc2sc(NC(=O)NS(=O)(=O)n3cnc4ccccc43)nc12"
quantity_name = "TGI"
assay_value = "62.6 µM"

[[record]]
compound = "Nc1nccc(-c2c(-c3ccc(F)cc3)nn3cc(C(F)(F)F)ccc23)n1"
quantity_name = "TGI"
assay_value = "> 25 µM"

[[record]]
compound = "NC(N)=NCCCC(NCc1c2ccccc2nc2ccccc12)C(=O)O (configuration not stated)"
quantity_name = "TGI"
assay_value = "> 100 µM"

[[record]]
compound = "O=C1c2cc(O)c(O)cc2O[C@H](c2ccc(O)c(O)c2)[C@H]1O"
quantity_name = "TGI"
assay_value = "> 100 µM"


###

Below, each entry is listed with its recorded TGI.
System: HS 578T breast
Assay: NCI tumour cell line growth inhibition, 48 h
quantity_name: TGI

[[record]]
compound = "COc1ccc2nc3c(c(N)c2c1)C1CCC3C1(C)C (configuration not stated)"
subject_of_test = "HS 578T breast"
assay_value = "> 100 µM"

[[record]]
compound = "Cc1nc2sc3cccc(Cl)c3n2c(=O)c1N=Nc1ccc(Cl)cc1"
subject_of_test = "HS 578T breast"
assay_value = "> 100 µM"

[[record]]
compound = "COc1ccc(/C(Nc2ccccc2)=C(\\CCl)c2ccccc2)cc1OC"
subject_of_test = "HS 578T breast"
assay_value = "> 100 µM"

[[record]]
compound = "Nc1nccc(-c2c(-c3ccc(F)cc3)nn3cc(C(F)(F)F)ccc23)n1"
subject_of_test = "HS 578T breast"
assay_value = "> 25 µM"

[[record]]
compound = "CC[C@H](C)[C@H](NC(=O)[C@H]1CCCCN1C)C(=O)N(C)[C@H](C[C@@H](OC(C)=O)c1nc(C(=O)NC23CC(C(=O)OC)(C2)C3)cs1)C(C)C"
subject_of_test = "HS 578T breast"
assay_value = "> 32.5 µM"

[[record]]
compound = "O=C(NCCC1CNc2ccccc21)OCc1ccccc1 (configuration not stated)"
subject_of_test = "HS 578T breast"
assay_value = "> 100 µM"

[[record]]
compound = "CSCCC(C(=O)O)N(C)C (configuration not stated)"
subject_of_test = "HS 578T breast"
assay_value = "> 100 µM"

[[record]]
compound = "CCN(/C=C1/C(=O)C(c2ccccc2)N(c2ccccc2)C1=O)CC (configuration not stated)"
subject_of_test = "HS 578T breast"
assay_value = "> 10 µM"

[[record]]
compound = "CCO/C=C1\\SC(=S)N(c2ccc(OCC)cc2)C1=O"
subject_of_test = "HS 578T breast"
assay_value = "> 100 µM"

[[record]]
compound = "CC(=O)Oc1c(C(=O)[O-])cc(C(C)C)cc1C(C)C.CC(=O)Oc1c(C(=O)[O-])cc(C(C)C)cc1C(C)C.CC(=O)Oc1c(C(=O)[O-])cc(C(C)C)cc1C(C)C.CC(=O)Oc1c(C(=O)[O-])cc(C(C)C)cc1C(C)C.[Cu+2].[Cu+2]"
subject_of_test = "HS 578T breast"
assay_value = "> 100 µM"

[[record]]
compound = "CC(=O)c1ccc(Nc2c3c(nc4ccccc24)CCCC3)cc1"
subject_of_test = "HS 578T breast"
assay_value = "> 88 µM"

[[record]]
compound = "C=CCC(CCC(C)=O)(C(=O)OCC)C(=O)OCC"
subject_of_test = "HS 578T breast"
assay_value = "> 100 µM"


###

System: RPMI-8226 leukemia
Assay: NCI tumour cell line growth inhibition, 48 h
quantity_name: GI50

[[record]]
compound = "CC(=O)[CH-]C(=O)c1ccccc1.[C-]#[O+].[C-]#[O+].[Ir]"
assay_value = "> 10 µM"

[[record]]
compound = "CSc1nc2nc(-c3ccccc3)c(C)c-2c2n1C(C)C(=O)N2 (stereo not drawn)"
assay_value = "16.4 µM"

[[record]]
compound = "C=CCN(CC=C)C(=O)c1cc(C)nc2c1c(=O)n(-c1ccccc1)c(=O)n2CCCN1CCN(c2ccccc2OC)CC1"
assay_value = "> 50 µM"


###

Tested on: LOX IMVI melanoma
Assay: NCI tumour cell line growth inhibition, 48 h
Entries and their measured TGI follow.
quantity_name: TGI (µM)

[[record]]
cpd_smiles = "COC(=O)C1=C(C(=O)OC)C2(c3ccccc3)OC1(c1ccccc1)c1cc3ccccc3cc12"
quantity_name = "TGI"
relation = "="
assay_value = 2.71

[[record]]
cpd_smiles = "COCCOC1=C(Cl)C(=O)c2ccccc2C1=O"
quantity_name = "TGI"
relation = "="
assay_value = 3.31

[[record]]
cpd_smiles = "COc1ccc(/C(Nc2ccccc2)=C(\\CCl)c2ccccc2)cc1OC"
quantity_name = "TGI"
relation = ">"
assay_value = 100

[[record]]
cpd_smiles = "COC(CN(C)C(=S)Nc1cccc2ccccc12)OC"
quantity_name = "TGI"
relation = ">"
assay_value = 10


###

System: OVCAR-8 ovarian
Test: NCI tumour cell line growth inhibition, 48 h; in the data active means GI50 below about 0.43 µM; inactive means the rest
Classes used: TRUE = active, FALSE = inactive

[[record]]
cpd_smiles = "Cc1cc(Cl)nc(N(CCNc2ccnc3cc(Cl)ccc23)Cc2ccco2)n1"
label_class = "FALSE"

[[record]]
cpd_smiles = "C=CCN(CC=C)C(=O)c1cc(C)nc2c1c(=O)n(-c1ccccc1)c(=O)n2CCCN1CCN(c2ccccc2OC)CC1"
label_class = "FALSE"

[[record]]
cpd_smiles = "O=C(COc1ccc(/C=C2\\Oc3ccccc3C2=O)cc1)Nc1nc2ccccc2s1"
label_class = "TRUE"


###

System: HL-60(TB) leukemia
Assay: NCI tumour cell line growth inhibition, 48 h
quantity_name: GI50

[[record]]
compound = "CN1CCN(c2c(F)cc(NC3=C(Cl)C(=O)c4ncccc4C3=O)cc2F)CC1"
quantity_name = "GI50"
assay_value = "1330 nM"

[[record]]
compound = "CCC(c1ccccc1)c1noc(CCN(CC)CC)n1 (configuration not stated)"
quantity_name = "GI50"
assay_value = "18100 nM"

[[record]]
compound = "CNCc1ccc(-c2cc(-c3nc(-c4ccc(S(=O)(=O)C(C)C)cc4)cnc3N)on2)cc1"
quantity_name = "GI50"
assay_value = "1350 nM"

[[record]]
compound = "COc1ccc(/C=C2\\CCC/C(=C\\c3ccc(OC)c(OC)c3)C2=O)cc1OC"
quantity_name = "GI50"
assay_value = "2250 nM"

[[record]]
compound = "Cc1cnc(C(=O)NNc2nc3sc4c(c3c(=O)[nH]2)C(C)CCC4)cn1 (configuration not stated)"
quantity_name = "GI50"
assay_value = "2040 nM"

[[record]]
compound = "S=C1SCN(Cc2ccccc2)CN1Cc1ccco1"
quantity_name = "GI50"
assay_value = "5910 nM"

[[record]]
compound = "COc1cc(C(=O)/C=C/c2cccc(Nc3ccnc4cc(Cl)ccc34)c2)cc(OC)c1OC"
quantity_name = "GI50"
assay_value = "1820 nM"


Where do these numbers come from? They come from PubChem BioAssay (NCI).
